We begin with a simple list: items and their reported EC50 (cAMP).
Molecular target: T1, human GLP-2 receptor (human, UniProt O95838 1-553)
T1 sequence (looked up): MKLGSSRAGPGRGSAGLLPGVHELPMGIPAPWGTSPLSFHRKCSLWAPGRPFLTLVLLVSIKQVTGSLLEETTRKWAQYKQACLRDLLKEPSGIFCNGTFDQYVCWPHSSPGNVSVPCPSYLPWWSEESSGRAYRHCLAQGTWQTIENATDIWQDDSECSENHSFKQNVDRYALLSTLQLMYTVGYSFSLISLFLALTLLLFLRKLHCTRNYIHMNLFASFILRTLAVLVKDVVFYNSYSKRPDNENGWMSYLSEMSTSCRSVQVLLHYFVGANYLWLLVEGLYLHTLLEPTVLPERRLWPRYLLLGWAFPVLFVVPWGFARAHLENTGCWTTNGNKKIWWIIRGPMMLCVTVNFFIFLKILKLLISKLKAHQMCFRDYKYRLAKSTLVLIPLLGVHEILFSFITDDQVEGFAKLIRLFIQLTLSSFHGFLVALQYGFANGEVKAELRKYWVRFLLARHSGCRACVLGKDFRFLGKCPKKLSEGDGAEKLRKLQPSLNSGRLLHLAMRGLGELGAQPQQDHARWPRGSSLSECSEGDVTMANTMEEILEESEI
Test: cell-based or functional assay
Ends that are not written are not given here. * marks the point of attachment. Palmitoyl = CCCCCCCCCCCCCCCC(=O)*
Quick note: give the figure in nM, leave out the unit.

HADGTFISDYSTILDNLAAKDFINWLIQTKITK [GIP-GLP-2 co-agonist 28] ... 1.2

-- ask Look up EC50 (cAMP) for this binder: HADGTFSSDYSTILDNLAARDFINWLIQTK(Palmitoyl)ITD [GIP-GLP-2 co-agonist 23]
-- reply 1.4

-- ask Look up EC50 (cAMP) for this binder: HADGTFISDYSKILDNLAARDFINWLIQTKITK [GIP-GLP-2 co-agonist 24]
-- reply 0.74

-- ask Look up EC50 (cAMP) for this binder: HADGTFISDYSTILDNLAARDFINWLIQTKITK (C16 acyl group on Lys 33 (K(c16/33), 'with C16 pos 33')) [GIP-GLP-2 co-agonist 33]
-- reply 13

-- ask Look up EC50 (cAMP) for this binder: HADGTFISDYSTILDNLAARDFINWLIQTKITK (not fully specified (residue 1, N-terminus); also: C16 acyl group on His 1 (attachment site not given here)) [GIP-GLP-2 co-agonist 29]
-- reply 17
